Provenance of the data: ChEMBL document CHEMBL4359923

# Test system: HUVEC
# measurement protocol: Cytotoxicity against human HUVEC cells assessed as inhibition of cell growth at 1 to 10 uM measured after 72 hrs by resazurin dye based assay
assay metric: Activity

1) CO[C@H]1C[C@@H](C)C/C(C)=C/[C@@H](C/C=C/c2ccccc2N)C(=O)C[C@H](O)[C@@H](C)[C@@H](/C(C)=C/[C@@H]2CC[C@@H](O)[C@H](OC)C2)OC(=O)[C@@H]2CCCCN2C(=O)C(=O)[C@]2(O)O[C@H]1[C@@H](OC)C[C@H]2C: Toxic
2) CO[C@H]1C[C@@H](C)C/C(C)=C/[C@@H](C/C=C/c2ccncc2F)C(=O)C[C@H](O)[C@@H](C)[C@@H](/C(C)=C/[C@@H]2CC[C@@H](O)[C@H](OC)C2)OC(=O)[C@@H]2CCCCN2C(=O)C(=O)[C@]2(O)O[C@H]1[C@@H](OC)C[C@H]2C: Toxic
